measurementType: melting point

Take a look at these entries with their results.
Can you look up the measured melting point of Nc1c(F)c(-c2cc(F)c(I)cc2F)nc(C(=O)O)c1Cl for me?
159 to 161 °C

Can you look up the measured melting point of C#Cc1ccc(-c2nc(C(=O)O)c(Cl)c(N)c2C)cc1F for me?
175 to 176.5 °C

Can you look up the measured melting point of COC(=O)c1nc(-c2cc(F)c(C(F)F)cc2F)c(F)c(N)c1Cl for me?
135.2 to 136.9 °C

Can you look up the measured melting point of COC(=O)c1nc(-c2ccc(C#N)c(F)c2)c(C)c(N)c1Cl for me?
177 to 180 °C

---
Can you look up the measured melting point of C#Cc1ccc(-c2nc(C(=O)OC)c(Cl)c(N)c2F)c(F)c1 for me?
186 to 188 °C

Can you look up the measured melting point of Cc1ccc(-c2nc(C(=O)O)c(Cl)c(N)c2F)cc1F for me?
145 to 146 °C
